Tested On: UniProt:Q9HC16
Sequence (Q9HC16 whole entry): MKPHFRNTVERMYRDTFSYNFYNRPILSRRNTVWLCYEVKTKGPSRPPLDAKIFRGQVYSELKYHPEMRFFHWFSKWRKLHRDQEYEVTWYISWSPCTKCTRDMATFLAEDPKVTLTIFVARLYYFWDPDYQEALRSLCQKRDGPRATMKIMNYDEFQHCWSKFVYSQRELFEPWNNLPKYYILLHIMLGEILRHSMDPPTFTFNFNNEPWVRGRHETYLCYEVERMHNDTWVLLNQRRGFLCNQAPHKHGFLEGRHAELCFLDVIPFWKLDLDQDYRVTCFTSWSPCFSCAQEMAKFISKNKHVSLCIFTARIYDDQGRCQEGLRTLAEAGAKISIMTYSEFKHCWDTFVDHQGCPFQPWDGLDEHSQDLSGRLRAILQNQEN
Assay Remarks: Dose Response confirmation of small molecule APOBEC3G DNA Deaminase Inhibitors via a fluorescence-based single-stranded DNA deaminase assay. [Related pubchem assays (depositor defined):AID493012, AID493028]
Assay type: functional
The source made the active and inactive calls. Rule as the data show it: actives have a measured IC50 and inactives only a lower limit.

>  <Compound>
O=C1C=CC(=O)C(C2=C3C(=O)N(CCc4ccccc4)CC(=O)N3CCC2)=C1

>  <IC50>
8.15 µM (active)

$$$$
>  <Compound>
Cc1cc(-c2nnc(S)n2/N=C/c2sccc2C)[nH]n1

>  <IC50>
2.44 µM (active)

$$$$
>  <Compound>
Sc1nnc(COc2ccccc2)n1/N=C/c1ccco1

>  <IC50>
3.38 µM (active)

$$$$
>  <Compound>
C=CCn1c(-c2ccc([N+](=O)[O-])cc2)n[nH]c1=S

>  <IC50>
4.51 µM (active)

$$$$
>  <Compound>
CCCC(C)c1nnc(NC(=O)c2cc(C(=O)OC)cc([N+](=O)[O-])c2)s1 (configuration not stated)

>  <IC50>
19.6 µM (active)

$$$$
>  <Compound>
Oc1nc(-c2ccncc2)nc2ccccc12

>  <IC50>
44.8 µM (active)

$$$$
>  <Compound>
Cc1cc(-c2nnc(S)n2-c2ccc(F)cc2)nn1C

>  <IC50>
16.2 µM (active)

$$$$
